System: OVCAR-3 ovarian
METHOD: NCI tumour cell line growth inhibition, 48 h
Exercise: for every item that follows, state its recorded TGI.

Field: example entries. Status: answers known.
[
  {
    "COMPOUND": "CN(C)CCCNC(=O)c1cc2/c(=C\\c3ccc(N(C)C)cc3)c3ccccc3n2[n+]1C",
    "TGI": "52.2 µM"
  },
  {
    "COMPOUND": "O=C(Cc1nc2ccccc2o1)C(=O)Nc1ccccc1C(F)(F)F",
    "TGI": "> 100 µM"
  },
  {
    "COMPOUND": "O=S1(=O)OCCOS(=O)(=O)C1(Br)Cc1ccccc1",
    "TGI": "> 100 µM"
  },
  {
    "COMPOUND": "O=C1C(Cl)=C(Cl)C(=O)C2=C1C1c3ccccc3C2c2ccccc21",
    "TGI": "> 100 µM"
  },
  {
    "COMPOUND": "C#CCn1cnc2cnc(Nc3cccc(NC(=O)CCl)c3)nc21",
    "TGI": "> 62.5 µM"
  },
  {
    "COMPOUND": "CC(N)Cc1ccc(F)cc1 (centres undefined)",
    "TGI": "> 100 µM"
  },
  {
    "COMPOUND": "CN(C)c1cc[n+](/C(NS(=O)(=O)c2cc(C(=O)Nc3ccc(Cl)cc3)c(Cl)cc2[S-])=C(\\C#N)C(=O)c2ccccc2)cc1",
    "TGI": "98.6 µM"
  },
  {
    "COMPOUND": "CC1=CC(C)(C)[C@H]2O[C@@]3(O)C[C@]4(C)[C@H]5C[C@@](C(C)C)(O[C@H]4c4ccoc4)O[C@H]4[C@]5(C3)O[C@@]1(O)[C@]24O",
    "TGI": "> 100 µM"
  }
]

Read the next record carefully.
Ask | I'm curious: which TGI was measured for `O=C(Nc1nc(-c2ccc(Cl)cc2)cs1)c1cc(-c2ccc(Br)cc2)nc2ccc(Cl)cc12` tested on OVCAR-3 ovarian?
Reply | 9.19 µM

---

Exercise: for every item that follows, state its recorded log10(TGI).
System: NCI-H23 lung
METHOD: NCI tumour cell line growth inhibition, 48 h
Kindly note that the scale is log10 and the underlying TGI is in µM.

Field: example entries. Status: answers known.
[
  {
    "COMPOUND": "NCCCCCCCCCCn1c2c(c3ccccc3c1=O)C(=O)c1ccccc1-2",
    "log10(TGI)": 1.51
  },
  {
    "COMPOUND": "O=c1c2cc(F)ccc2sc2c(Nc3ccncc3)nc3ccccc3c12",
    "log10(TGI)": 0.58
  },
  {
    "COMPOUND": "O/N=C1/C(=C/c2ccc(Cl)c(Cl)c2)CCCC1C(NO)c1ccc(Cl)c(Cl)c1 (stereo not given)",
    "log10(TGI)": 1.55
  },
  {
    "COMPOUND": "COc1cc(OC)c2c(c1)C(=O)C(CC1(C)OCCCO1)=CC2=O",
    "log10(TGI)": 1.43
  },
  {
    "COMPOUND": "CC(C)=[CH][Sb]([Br])([CH]=C(C)C)([CH]=C(C)C)[c]1ccccc1",
    "log10(TGI)": 1.65
  },
  {
    "COMPOUND": "CC(=O)NS(=O)(=O)c1ccc(-n2nc(-c3ccc(Cl)cc3)cc2-c2cc(O)ccc2O)cc1",
    "log10(TGI)": 1.51
  },
  {
    "COMPOUND": "C[n+]1c(-c2ccccc2)c2cc(N)ccc2c2ccccc21",
    "log10(TGI)": 1.09
  },
  {
    "COMPOUND": "NCCCOc1cc2ccccc2cc1C(=O)NCCOc1nc2ccccc2cc1C(=O)Nc1ccc(Cl)cc1O",
    "log10(TGI)": 0.38
  },
  {
    "COMPOUND": "O=C(NN1C(=O)C(Cl)C1c1ccc(O)cc1)c1ccccc1O (stereo not given)",
    "log10(TGI)": 1.62
  },
  {
    "COMPOUND": "CC(=O)Oc1c(-c2ccccc2)oc2ccccc12",
    "log10(TGI)": 0.62
  }
]

Hi team, please reply with log10(TGI) for each item in this list.
1. COc1ccc(CC2C(=O)NC(C)C(=O)N(C)C3C(=O)N(C)C(Cc4ccc(O)c(c4)Oc4ccc(cc4)C3O)C(=O)NC(C)C(=O)NC(C)C(=O)N2C)cc1 (stereo not given) (tested in a mixture with another compound)
2. Cc1ccc(O)c(C(c2ccc(C(c3cc(C)ccc3O)c3cc(C)ccc3O)cc2)c2cc(C)ccc2O)c1
3. CCOC(=O)C1C(=O)C=C(c2cc(C)ccc2O)CC1c1cccc(Cl)c1 (stereo not given)
4. Cc1cnc(-n2c(C)nc3cc(Cl)ccc3c2=O)s1

Reply |
[-1.29, 0.51, 1.95, 1.99]

Hi team, please reply with log10(TGI) for each item in this list.
1. CCOC(=O)N1C/C(=C/c2ccc(Cl)cc2)C(=O)/C(=C/c2ccc(Cl)cc2)C1
2. CN(C)CCNc1ccc2nnn3c4ccccc4c(=O)c1c23

Reply |
[1.44, 1.06]
